Provide the reported S2/S1 Ratio of each item.
# Study system: sigma 2 binding site (Rattus norvegicus)
# Sequence (Q5U3Y7 1-176): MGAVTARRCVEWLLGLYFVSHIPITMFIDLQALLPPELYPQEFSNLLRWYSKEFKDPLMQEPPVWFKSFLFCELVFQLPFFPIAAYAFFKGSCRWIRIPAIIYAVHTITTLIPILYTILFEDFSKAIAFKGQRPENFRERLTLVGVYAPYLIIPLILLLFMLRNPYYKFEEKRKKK
# Procedure summary: Sigma 2 selective receptor binding inhibition assay with [^3H]-di-o-tolylguanidine
# Experimental parameters: ratio of Sigma 2 Ki to Sigma 1 Ki
Structures can show the parent of a compound that is named as a salt.
Numbers only.

| Compound | S2/S1 Ratio |
| --- | --- |
| CN(CCCCN1c2ccccc2Oc2ccc(Cl)cc2S1(=O)=O)CC(O)c1ccc(F)cc1 (racemic) [Example 24, hydrochloride] | 0.1 |
| O=C(O)/C=C/C(=O)O.O=S1(=O)c2ccccc2Oc2ccccc2N1CC1CCN(C[C@H](O)C23CC4CC(CC(C4)C2)C3)CC1.O=S1(=O)c2ccccc2Oc2ccccc2N1CC1CCN(C[C@H](O)C23CC4CC(CC(C4)C2)C3)CC1 | 0.004 |
| COc1ccc2c(c1)N(CC1CCN(CC(O)c3ccc(F)cc3)CC1)S(=O)(=O)c1cc(Cl)ccc1O2 (racemic) [Example 21, hydrochloride] | 0.02 |
| COc1ccc2c(c1)N(CC1CCN(CC(O)C34CC5CC(CC(C5)C3)C4)CC1)S(=O)(=O)c1cc(Cl)ccc1O2 (racemic) [Example 20, hydrochloride] | 0.003 |

For every item below, please supply its S2/S1 Ratio.
1. O=S1(=O)c2ccccc2Nc2ccc(Cl)cc2N1CC1CCN(CC(O)C23CC4CC(CC(C4)C2)C3)CC1 (racemic) [Example 8, hydrochloride]
2. CN(CCCCN1c2ccccc2Oc2ccc(Cl)cc2S1(=O)=O)CC(O)C12CC3CC(CC(C3)C1)C2 (racemic) [Example 23, hydrochloride]

Data returned:
0.03
0.02

// batch mode: one S2/S1 Ratio value per listed entry
1. O=S1(=O)c2ccccc2Nc2ccccc2N1CC1CCN(CC(O)c2ccc(F)cc2F)CC1 (racemic) [Example 3, hydrochloride]
2. COc1ccc(C(O)CN2CCC(CN3c4ccccc4Oc4ccccc4S3(=O)=O)CC2)cc1 (racemic) [Example 12, hydrochloride]
3. O=S1(=O)c2cc(Cl)ccc2Oc2ccccc2N1CC1CCN(CC(O)c2ccc(F)cc2)CC1 (racemic) [Example 16, hydrochloride]
4. Cc1ccc(C(O)CN2CCC(CN3c4ccccc4Oc4ccccc4S3(=O)=O)CC2)cc1 (racemic) [Example 13, hydrochloride]
5. O=S1(=O)c2cc(Cl)ccc2Oc2ccccc2N1CC1CCN(CC(O)c2ccccc2)CC1 (racemic) [Example 15, hydrochloride]

Data returned:
1: 0.06; 2: 0.09; 3: 0.01; 4: 0.02; 5: 0.01

Consider Cc1ccccc1C(O)CN1CCC(CN2c3ccccc3Nc3ccccc3S2(=O)=O)CC1 (racemic) [Example 5, hydrochloride] . Its measured S2/S1 Ratio is 0.2

---

Provide the reported pKi of each item.
# Study system: Dopamine D2 (Rattus norvegicus, UniProt P61169)
# Construct: dopaminergic receptors was also measured using rat striata
# Sequence (P61169 whole entry): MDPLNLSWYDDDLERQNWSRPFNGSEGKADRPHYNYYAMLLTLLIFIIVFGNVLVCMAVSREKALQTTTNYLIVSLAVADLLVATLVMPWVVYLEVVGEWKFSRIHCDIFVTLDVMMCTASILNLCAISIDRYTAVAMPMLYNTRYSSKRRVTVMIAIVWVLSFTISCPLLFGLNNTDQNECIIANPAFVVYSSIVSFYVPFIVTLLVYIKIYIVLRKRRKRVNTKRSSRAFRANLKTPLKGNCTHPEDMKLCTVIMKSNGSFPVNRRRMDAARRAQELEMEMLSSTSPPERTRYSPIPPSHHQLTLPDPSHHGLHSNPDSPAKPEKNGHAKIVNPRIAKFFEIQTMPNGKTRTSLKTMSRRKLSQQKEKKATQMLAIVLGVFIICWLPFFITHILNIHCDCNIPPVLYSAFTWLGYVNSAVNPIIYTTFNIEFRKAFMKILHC
# Procedure summary: Binding to dopaminergic receptors using rat striata (method of Terai et al.)
Where a name gives a salt, the structure may show the parent alone.
One number for each entry, as −log10 of the molar value.

Observe how each entry below is paired with its result.
| Compound | pKi |
| --- | --- |
| CN(CCCCN1c2ccccc2Oc2ccc(Cl)cc2S1(=O)=O)CC(O)c1ccc(F)cc1 (racemic) [Example 24, hydrochloride] | 6.10 |
| COc1ccc2c(c1)N(CC1CCN(CC(O)c3ccc(F)cc3)CC1)S(=O)(=O)c1cc(Cl)ccc1O2 (racemic) [Example 21, hydrochloride] | 6.09 |

Moving on to another compound below.
Recorded pKi (compound COc1ccc2c(c1)N(CC1CCN(CC(O)C34CC5CC(CC(C5)C3)C4)CC1)S(=O)(=O)c1cc(Cl)ccc1O2 (racemic) [Example 20, hydrochloride] ): 6.10
